The entries below come with measured IC50 values attached.
assayed.target: Syk kinase (Homo sapiens)
Construct: purchased
procedure.text: Syk kinase inhibition, Caliper LabChip off-chip mobility-shift kinase assay
Assay type: biochemical
experimental.setup: read-out: Syk Enzyme IC50
measured.attribute: IC50 (nM)

1. CCN1CCN(Cc2n[nH]c3cc(Nc4nc(-c5ccc(C)nc5)cc5cc[nH]c(=O)c45)ccc23)CC1 [compound 203] : 49
2. Cc1cc(Nc2nc(Nc3cc(C(=O)O)ccn3)cc3cc[nH]c(=O)c23)ccc1C1CCN(C2CC2)CC1 [compound 261] : 249
3. CCN1CCN(CCc2ccc(Nc3nc(-c4cncc(OC)n4)cc4c(F)c[nH]c(=O)c34)cc2)CC1 [compound 440] : 343
4. CCn1ccc2cc(Nc3cc(Cl)ccn3)nc(NCC(F)(F)F)c2c1=O [compound 592] : 962
5. COc1cncc(-c2cc3cc[nH]c(=O)c3c(Nc3ccc(C4CCN(CC5CCCO5)CC4)c(C)c3)n2)n1 (centres unmarked) [compound 77] : 115
6. Cc1ccnc(Nc2cc3ccn(C)c(=O)c3c(Nc3cccc(S(N)(=O)=O)c3)n2)c1 [compound 352] : 294
7. Cc1ccnc(Nc2cc3cc[nH]c(=O)c3c(NC3CCN(C)CC3)n2)c1 [compound 550] : 111
8. Cn1ccc2cc(Nc3cnccn3)nc(NC(C)(C)CO)c2c1=O [compound 472] : 155
9. Cc1ccnc(Nc2cc3cc[nH]c(=O)c3c(NCC3CCNCC3)n2)c1 [compound 554] : 86
10. O=c1[nH]ccc2cc(Nc3ccccn3)nc(N[C@H]3CCC[C@H]3O)c12 (racemic) [compound 280] : 62
11. Cc1cc(Nc2nc(Nc3ccc(C(N)=O)cn3)cc3cc[nH]c(=O)c23)ccc1N1CCO[C@H](C)C1 [compound 538] : 361
12. CCOC(C)c1cc2cc[nH]c(=O)c2c(Nc2ccc(N3CCO[C@H](C)C3)c(C)c2)n1 (some centres unmarked) [compound 233] : 754
13. CC(C)(C)N1CC=C(c2ccc(Nc3nc(-c4cncnc4)cc4cc[nH]c(=O)c34)cc2)CC1 [compound 94] : 13
14. Cc1ccnc(Nc2cc3cc[nH]c(=O)c3c(NC(C)C(C)C)n2)c1 (centres unmarked) [compound 268] : 343
15. Cc1ccnc(Nc2cc3cc[nH]c(=O)c3c(NCCc3cccnc3)n2)c1 [compound 284] : 166
16. [2H]C([2H])([2H])n1ccc2cc(Nc3cc(C)c(F)cn3)nc(NC3CC3)c2c1=O [compound 547] : 415
17. CN1CC(c2ccc(Nc3nc(-c4cncnc4)cc4cc[nH]c(=O)c34)cc2)C1 [compound 138] : 26
18. CCCN1CCC(c2ccc(Nc3nc(-c4cncc(OC)n4)cc4cc[nH]c(=O)c34)cc2C)CC1 [compound 55] : 33
19. CC(C)Nc1nc(Nc2ccc(C(N)=O)cn2)cc2cc[nH]c(=O)c12 [compound 540] : 206
20. COc1cncc(-c2cc3cc[nH]c(=O)c3c(Nc3ccc(C4CCN(C5CS(=O)(=O)C5)CC4)c(C)c3)n2)n1 [compound 42] : 26

Hello, the source for this data is patent US20110053897A1, in case you need it.
